Entries and their protein stability index values follow.
B1: TRIM15 (parent)
chain: QSSGKILLCPLCQEEEQAETPMAP

variants of: B1; assay: protein stability index of a GFP-peptide fusion (GPS, HEK-293T) (PSI 1-6); higher = more stable; settings: c terminus: a fixed tail appended;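 note: lentivirally expressed fusions sorted by FACS into six bins by GFP to DsRed ratio, PSI derived from sequencing read proportions per bin multiplied by bin number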
// return a plain number; no unit text

Known protein stability index results, listed for orientation:
MUTANT: E15S
MEASURE: protein stability index
EXPERIMENTAL VALUE: 2.75

MUTANT: L7G
MEASURE: protein stability index
EXPERIMENTAL VALUE: 3.9

Measured protein stability index, P21A : 3

Measured protein stability index, S2V : 2.56

Measured protein stability index, Q17P : 4.21

Measured protein stability index, P10I : 1.99

Measured protein stability index, L8R : 3.34

Measured protein stability index, M22D : 4.14
